target: wt IN^PFV (IN; WT) (Human spumaretrovirus, UniProt P14350); construct: full-length, His-tagged, expressed in E. coli BL21-CodonPlus (DE3)-RIPL; assay: Inhibition of IN-viral DNA binding by steady-state fluorescence anisotropy of 4 nM Fl-PFV^CAAT with 400 nM IN, 10 mM Mg2+, 25 °C.; conditions: n = 2; read-out: IC50 (IN-DNA interaction)
recorded-endpoint: IC50

Tested system wt IN^PFV (IN; WT) (Human spumaretrovirus, UniProt P14350); IC50 recorded for COc1cc(/C=C/c2ccc3ccc(C(=O)O)c(O)c3n2)cc(O)c1O [FZ41] was ~800 nM
